Test system: K562
Experiment: Cell cycle arrest in human K562 cells assessed as accumulation at G2-M phase at IC75 after 72 hrs using propidium iodide staining by flow cytometry
Format: functional

[
  {
    "COMPOUND SMILES": "C=C(Br)C(=O)Nc1ccc(C(=O)/C=C/c2ccccc2OC)cc1",
    "Activity, %": 3.9
  },
  {
    "COMPOUND SMILES": "C=C(Br)C(=O)Nc1ccc(C(=O)/C=C/c2ccc(OC)cc2)cc1",
    "Activity, %": 9.2
  },
  {
    "COMPOUND SMILES": "C=C(Br)C(=O)Nc1ccc(C(=O)/C=C/c2cccc(OC)c2OC)cc1",
    "Activity, %": 14.1
  },
  {
    "COMPOUND SMILES": "C=C(Br)C(=O)Nc1ccc(/C=C/C(=O)c2ccc(Br)cc2)cc1",
    "Activity, %": 16.2
  },
  {
    "COMPOUND SMILES": "C=C(Br)C(=O)Nc1ccc(/C=C/C(=O)c2ccc(OCC)cc2)cc1",
    "Activity, %": 11.6
  },
  {
    "COMPOUND SMILES": "C=C(Br)C(=O)Nc1ccc(/C=C/C(=O)c2cccs2)cc1",
    "Activity, %": 17
  },
  {
    "COMPOUND SMILES": "C=C(Br)C(=O)Nc1ccc(C(=O)/C=C/c2ccccc2)cc1",
    "Activity, %": 13
  },
  {
    "COMPOUND SMILES": "C=C(Br)C(=O)Nc1ccc(C(=O)/C=C/c2ccc(OC)c(OC)c2OC)cc1",
    "Activity, %": 13.6
  }
]

###

Parameter: log10(IC50). Scope: all listed entries.
System: CCRF-CEM
Test: Antiproliferative activity against human CEM cells after 48 hrs by Coulter counting analysis
Format: cell-based
VALUE TYPE: log10(IC50) (log10 of the value in µM)

[
  {
    "COMPOUND SMILES": "COc1cc(/C=C/C(=O)c2ccc(N)cc2)cc(OC)c1",
    "log10(IC50)": 0.76
  },
  {
    "COMPOUND SMILES": "Nc1ccc(/C=C/C(=O)c2ccccc2)cc1",
    "log10(IC50)": 1.53
  },
  {
    "COMPOUND SMILES": "Cc1ccc(C(=O)/C=C/c2ccc(N)cc2)cc1",
    "log10(IC50)": 1.49
  },
  {
    "COMPOUND SMILES": "C=C(Br)C(=O)Nc1ccc(C(=O)/C=C/c2ccc(OC)c(OC)c2OC)cc1",
    "log10(IC50)": -0.08
  },
  {
    "COMPOUND SMILES": "C=C(Br)C(=O)Nc1ccc(/C=C/C(=O)c2cccs2)cc1",
    "log10(IC50)": -0.14
  },
  {
    "COMPOUND SMILES": "C=C(Br)C(=O)Nc1ccc(/C=C/C(=O)c2ccccc2)cc1",
    "log10(IC50)": 0.60
  },
  {
    "COMPOUND SMILES": "Nc1ccc(C(=O)/C=C/c2ccccc2)cc1",
    "log10(IC50)": 0.93
  },
  {
    "COMPOUND SMILES": "C=C(Br)C(=O)Nc1ccc(/C=C/C(=O)c2cccc(OC)c2)cc1",
    "log10(IC50)": 0.36
  },
  {
    "COMPOUND SMILES": "Nc1ccc(/C=C/C(=O)c2ccc(F)cc2)cc1",
    "log10(IC50)": 1.59
  },
  {
    "COMPOUND SMILES": "COc1ccc(C(=O)/C=C/c2ccc(N)cc2)cc1",
    "log10(IC50)": 1.57
  },
  {
    "COMPOUND SMILES": "C=C(Br)C(=O)Nc1ccc(/C=C/C(=O)c2ccc(F)cc2)cc1",
    "log10(IC50)": 0.04
  },
  {
    "COMPOUND SMILES": "C=C(Br)C(=O)Nc1ccc(C(=O)/C=C/c2cc(OC)c(OC)c(OC)c2)cc1",
    "log10(IC50)": -0.48
  },
  {
    "COMPOUND SMILES": "Nc1ccc(/C=C/C(=O)c2cccs2)cc1",
    "log10(IC50)": 1.43
  },
  {
    "COMPOUND SMILES": "C=C(Br)C(=O)Nc1ccc(C(=O)/C=C/c2ccc(OC)cc2)cc1",
    "log10(IC50)": 0.04
  },
  {
    "COMPOUND SMILES": "C=C(Br)C(=O)Nc1ccc(/C=C/C(=O)c2ccc(OCC)cc2)cc1",
    "log10(IC50)": -0.12
  },
  {
    "COMPOUND SMILES": "C=C(Br)C(=O)Nc1ccc(C(=O)/C=C/c2cccc(OC)c2)cc1",
    "log10(IC50)": 0.26
  },
  {
    "COMPOUND SMILES": "COc1cccc(/C=C/C(=O)c2ccc(N)cc2)c1",
    "log10(IC50)": 1.36
  }
]
